System: ATP;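 also: ATP exposure 15 min at 22 °C before imaging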
Test: switch fluorescence ratio, 500 uM ATP over buffer (Cy3 cluster intensity, sum of 5 cycles each) (fold (ratio)); higher = stronger signal-on switching upon ATP binding; sequences stand for … in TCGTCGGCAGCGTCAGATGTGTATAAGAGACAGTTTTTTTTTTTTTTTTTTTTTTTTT…TC
Conditions: aptamer strand: ATP DNA aptamer (quencher-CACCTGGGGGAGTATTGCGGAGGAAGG + anchor), 100 nM annealed; ATP concentration: 500 uM
property: switch fluorescence ratio

Example entries and their recorded answers appear below.
{"sequence_data": "TTTACAACGC", "property": "switch fluorescence ratio", "result": 1.05}
{"sequence_data": "TTCAGAGACT", "property": "switch fluorescence ratio", "result": 1}
{"sequence_data": "CAGGGAGGGT", "property": "switch fluorescence ratio", "result": 0.983}
{"sequence_data": "AGGTTCGTTC", "property": "switch fluorescence ratio", "result": 0.97}
{"sequence_data": "GAGCGCGATT", "property": "switch fluorescence ratio", "result": 1.03}
{"sequence_data": "AAATGGAGTG", "property": "switch fluorescence ratio", "result": 0.987}
{"sequence_data": "TACTTAGTGC", "property": "switch fluorescence ratio", "result": 1.02}
{"sequence_data": "CGGGATTGGG", "property": "switch fluorescence ratio", "result": 0.96}

Consider the additional sequence presented here.
QUERY: Respond only with switch fluorescence ratio recorded for GAGGGGCCTG
RESULT: 1.01
